B1: library; a variant is named by its letters at N, in order (parent)
chain: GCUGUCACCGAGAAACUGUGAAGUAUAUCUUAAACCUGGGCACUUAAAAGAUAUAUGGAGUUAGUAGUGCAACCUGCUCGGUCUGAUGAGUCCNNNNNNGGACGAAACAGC

# Variants of: B1
# test: normalized RNA/DNA level without ligand (relative to sTRSVctl = 100) (log10 (% of sTRSVctl)); HEK293T; ligand: cyclic di-GMP (c-di-GMP-II aptamer); higher = less ribozyme self-cleavage, higher mRNA level
# assay.setup: reporter: mCherry (pCS4076), ligand present: no
reported.property: normalized RNA/DNA level without ligand (log10)
Form field (numeric): enter value without unit.

q: // lookup normalized RNA/DNA level without ligand (log10) for GCUGUCACCGAGAAACUGUGAAGUAUAUCUUAAACCUGGGCACUUAAAAGAUAUAUGGAGUUAGUAGUGCAACCUGCUCGGUCUGAUGAGUCCGGCAACGGACGAAACAGC
a: 1.72

q: One more variant: GCUGUCACCGAGAAACUGUGAAGUAUAUCUUAAACCUGGGCACUUAAAAGAUAUAUGGAGUUAGUAGUGCAACCUGCUCGGUCUGAUGAGUCCAGCUUUGGACGAAACAGC
a: 1.71

q: Also GCUGUCACCGAGAAACUGUGAAGUAUAUCUUAAACCUGGGCACUUAAAAGAUAUAUGGAGUUAGUAGUGCAACCUGCUCGGUCUGAUGAGUCCUCAACAGGACGAAACAGC , if possible.
a: 1.71

q: Entry GCUGUCACCGAGAAACUGUGAAGUAUAUCUUAAACCUGGGCACUUAAAAGAUAUAUGGAGUUAGUAGUGCAACCUGCUCGGUCUGAUGAGUCCCGCUGGGGACGAAACAGC please
a: 1.67

q: // same read-out, input: GCUGUCACCGAGAAACUGUGAAGUAUAUCUUAAACCUGGGCACUUAAAAGAUAUAUGGAGUUAGUAGUGCAACCUGCUCGGUCUGAUGAGUCCUAUCCAGGACGAAACAGC
a: 1.77

q: What about GCUGUCACCGAGAAACUGUGAAGUAUAUCUUAAACCUGGGCACUUAAAAGAUAUAUGGAGUUAGUAGUGCAACCUGCUCGGUCUGAUGAGUCCCCAAUAGGACGAAACAGC ?
a: 1.36

q: Also GCUGUCACCGAGAAACUGUGAAGUAUAUCUUAAACCUGGGCACUUAAAAGAUAUAUGGAGUUAGUAGUGCAACCUGCUCGGUCUGAUGAGUCCAGCUCAGGACGAAACAGC ?
a: 1.69

q: And then GCUGUCACCGAGAAACUGUGAAGUAUAUCUUAAACCUGGGCACUUAAAAGAUAUAUGGAGUUAGUAGUGCAACCUGCUCGGUCUGAUGAGUCCUGUCUAGGACGAAACAGC , what is it?
a: 1.71

q: Now the same for GCUGUCACCGAGAAACUGUGAAGUAUAUCUUAAACCUGGGCACUUAAAAGAUAUAUGGAGUUAGUAGUGCAACCUGCUCGGUCUGAUGAGUCCAAUGAAGGACGAAACAGC
a: 1.46

q: And what about the variant GCUGUCACCGAGAAACUGUGAAGUAUAUCUUAAACCUGGGCACUUAAAAGAUAUAUGGAGUUAGUAGUGCAACCUGCUCGGUCUGAUGAGUCCGCGUCAGGACGAAACAGC ?
a: 1.62

q: What would you report for GCUGUCACCGAGAAACUGUGAAGUAUAUCUUAAACCUGGGCACUUAAAAGAUAUAUGGAGUUAGUAGUGCAACCUGCUCGGUCUGAUGAGUCCACAAAGGGACGAAACAGC ?
a: 1.4
